The origin of these recorded values is ChEMBL document CHEMBL4038324.

Assignment: determine reported inhibition for the given molecules.
- Assayed target: Cannabinoid receptor 2 (Homo sapiens, UniProt P34972)
- Sequence (P34972 whole entry): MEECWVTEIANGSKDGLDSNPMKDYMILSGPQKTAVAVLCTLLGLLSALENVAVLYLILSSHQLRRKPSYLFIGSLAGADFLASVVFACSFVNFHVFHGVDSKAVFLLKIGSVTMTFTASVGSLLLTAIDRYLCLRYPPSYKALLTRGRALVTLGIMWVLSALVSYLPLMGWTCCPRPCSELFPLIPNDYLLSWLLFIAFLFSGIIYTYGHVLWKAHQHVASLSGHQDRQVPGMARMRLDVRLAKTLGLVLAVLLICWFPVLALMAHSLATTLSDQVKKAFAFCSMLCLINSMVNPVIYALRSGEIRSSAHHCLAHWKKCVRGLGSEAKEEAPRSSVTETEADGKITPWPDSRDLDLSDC
- Assay protocol: Antagonist activity at human CB2 receptor expressed in CHO cells assessed as inhibition of CP55940-induced Ca2+ flux at 10 uM preincubated for 10 mins followed by agonist addition by Fluor-4 AM dye based assay
- Type: functional, cell-based

INSERT INTO results (sample_smiles, observed_measurement) VALUES
  ('O=C(NC12CC3CC(CC(C3)C1)C2)c1[nH]c2ccccc2c1F', '< 50%'),
  ('O=C(NC12CC3CC(CC(C3)C1)C2)c1c(F)c2ccccc2n1CCCCO', '< 50%'),
  ('O=CCCCCn1c(C(=O)NC23CC4CC(CC(C4)C2)C3)cc2ccccc21', '< 50%'),
  ('NCCCCCn1c(C(=O)NC23CC4CC(CC(C4)C2)C3)cc2ccccc21', '< 50%');

Give one value of inhibition per listed molecule.
1. N#CCCn1cc(C(=O)NC23CC4CC(CC(C4)C2)C3)c2ccccc21
2. O=C(NC12CC3CC(CC(C3)C1)C2)c1cn(CCCCO)c2ccccc12
3. NCCCCn1c(C(=O)NC23CC4CC(CC(C4)C2)C3)cc2ccccc21
4. COc1cccc2c1c(C(=O)NC13CC4CC(CC(C4)C1)C3)cn2CCN1CCOCC1
5. O=C(NC12CC3CC(CC(C3)C1)C2)c1cc2ccccc2n1CCN1CCOC1=O

**Result**
1. < 50%
2. < 50%
3. < 50%
4. < 50%
5. < 50%

**Query** Form field: reported inhibition of CCCCCn1cc(C(=O)NC23CC4CC(CC(C4)C2)C3)c2ccccc21
**Result** < 50%

###

- Assay protocol: MRT in C57 mouse at 10 mg/kg, ip measured up to 2 hrs by LC-MS/MS analysis
- Type: ADME, organism-based
- Conditions used: in vivo
Measure name: MRT (h)
One number for each entry, in h.

**Query** Form field: reported MRT of O=C(NC12CC3CC(CC(C3)C1)C2)c1cc2ccccc2n1CCCCO
**Result** 1.51

###

Assignment: determine reported EC50 for the given compounds.
- Assayed target: Cannabinoid receptor 2 (Homo sapiens)
- Assay protocol: Agonist activity at human CB2 receptor expressed in CHO cells assessed as induction of Ca2+ flux after 10 mins by Fluor-4 AM dye based assay
- Assay type: functional, cell-based
Answers are plain numbers, in nM.

INSERT INTO measurements (sample_smiles, measure_name, observed_measurement) VALUES
  ('O=C(NC12CC3CC(CC(C3)C1)C2)c1cc2ccccc2n1CCCC(F)(F)F', 'EC50', 490),
  ('O=C(NC12CC3CC(CC(C3)C1)C2)c1c(F)c2ccccc2n1CCCCO', 'EC50', 410),
  ('N#CCCCCn1c(C(=O)Nc2ccccc2)cc2ccccc21', 'EC50', 200),
  ('NCCCCn1c(C(=O)NC23CC4CC(CC(C4)C2)C3)cc2ccccc21', 'EC50', 4700),
  ('O=C(NC12CC3CC(CC(C3)C1)C2)c1cc2ccccc2n1CCCCCO', 'EC50', 100),
  ('O=C(NC12CC3CC(CC(C3)C1)C2)c1cn(CCCCO)c2ccccc12', 'EC50', 160);

Give one value of EC50 per listed compound.
1. COCCCCCn1cc(C(=O)NC23CC4CC(CC(C4)C2)C3)c2ccccc21
2. O=C(NC12CC3CC(CC(C3)C1)C2)c1cc2ccccc2n1CCCO
3. O=C(NC12CC3CC(CC(C3)C1)C2)c1cn(CCCCCO)c2ccccc12
4. N#CCCn1c(C(=O)NC23CC4CC(CC(C4)C2)C3)cc2ccccc21

**Result**
1. 82
2. 160
3. 62
4. 150

###

Assignment: determine reported pEC50 for the given compounds.
- Assayed target: Cannabinoid receptor 2 (Homo sapiens)
- Assay protocol: Agonist activity at human CB2 receptor expressed in CHO cells assessed as induction of Ca2+ flux after 10 mins by Fluor-4 AM dye based assay
- Type: functional, cell-based
Give bare numbers, as −log10 of the molar value.

// solved cases for pEC50 follow
INSERT INTO results (sample_smiles, measure_name, observed_measurement) VALUES
  ('O=C(NC12CC3CC(CC(C3)C1)C2)c1cc2ccccc2n1CC1CCOCC1', 'pEC50', 6.39),
  ('O=C(NC12CC3CC(CC(C3)C1)C2)c1cc2ccccc2n1CCN1CCOC1=O', 'pEC50', 6.66),
  ('O=C(O)CCCCn1c(C(=O)NC23CC4CC(CC(C4)C2)C3)cc2ccccc21', 'pEC50', 5.15);

**Query** Requested read-out pEC50, target or system Cannabinoid receptor 2 (Homo sapiens), entry Cc1cccc2c(C(=O)NC34CC5CC(CC(C5)C3)C4)c[nH]c12
**Result** 6.30

###

- Assayed target: Cannabinoid receptor 2 (Homo sapiens, UniProt P34972)
- Assay protocol: Agonist activity at human CB2 receptor expressed in CHO cells assessed as induction of Ca2+ flux after 10 mins by Fluor-4 AM dye based assay relative to CP55940
- Format: functional, cell-based
Measure name: Emax

INSERT INTO assay_data (sample_smiles, assayed_target, measure_name, observed_measurement) VALUES
  ('O=C(NC12CC3CC(CC(C3)C1)C2)c1cn(CCCCO)c2ccccc12', 'Cannabinoid receptor 2 (Homo sapiens, UniProt P34972)', 'Emax', '68.3%');

Give one value of Emax per listed compound.
1. O=C(O)CCCCn1c(C(=O)NC23CC4CC(CC(C4)C2)C3)cc2ccccc21
2. Cc1cccc2c(C(=O)NC34CC5CC(CC(C5)C3)C4)c[nH]c12
3. O=C(NC12CC3CC(CC(C3)C1)C2)c1cn(CCCCCO)c2ccccc12
4. O=C(NC12CC3CC(CC(C3)C1)C2)c1[nH]c2ccccc2c1F

**Result**
43.3%
60%
63.3%
83.3%

Give one value of Emax per listed compound.
1. CCCCCn1cc(C(=O)NC23CC4CC(CC(C4)C2)C3)c2ccccc21
2. N#CCCCCn1c(C(=O)NC23CC4CC(CC(C4)C2)C3)cc2ccccc21
3. O=C(NC12CC3CC(CC(C3)C1)C2)c1cc2ccccc2n1CCN1CCOC1=O
4. O=C(NC12CC3CC(CC(C3)C1)C2)c1cc2ccccc2n1CC1CCOCC1

**Result**
66.3%
41.7%
66.7%
41.7%

###

- Assay protocol: AUC (0 to t) in C57 mouse at 10 mg/kg, ip measured up to 2 hrs by LC-MS/MS analysis
- Type: ADME, organism-based
- Design: dose 10 mg/kg, time < 2 hr, route intraperitoneal
- Conditions used: in vivo
Measure name: AUC(0-t) at 2 h (ng·h/mL)
Give bare numbers, in ng·h/mL.

**Query** Form field: reported AUC(0-t) at 2 h of O=C(NC12CC3CC(CC(C3)C1)C2)c1cc2ccccc2n1CCCCO
**Result** 317

###

- Assayed target: Cannabinoid receptor 1 (Rattus norvegicus, UniProt P20272)
- Sequence (P20272 whole entry): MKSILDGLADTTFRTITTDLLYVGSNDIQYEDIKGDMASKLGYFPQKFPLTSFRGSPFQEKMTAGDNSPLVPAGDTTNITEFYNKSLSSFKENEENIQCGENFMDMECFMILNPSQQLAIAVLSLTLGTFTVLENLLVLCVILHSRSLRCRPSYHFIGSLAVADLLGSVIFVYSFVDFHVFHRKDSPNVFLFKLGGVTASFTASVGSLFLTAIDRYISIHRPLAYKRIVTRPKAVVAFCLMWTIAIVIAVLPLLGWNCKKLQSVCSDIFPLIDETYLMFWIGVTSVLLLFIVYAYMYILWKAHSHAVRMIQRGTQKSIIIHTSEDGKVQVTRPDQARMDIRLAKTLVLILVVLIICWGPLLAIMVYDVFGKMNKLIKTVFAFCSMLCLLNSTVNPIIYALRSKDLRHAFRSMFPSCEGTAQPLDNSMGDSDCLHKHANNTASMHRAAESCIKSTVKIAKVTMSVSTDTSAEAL
- Assay protocol: Agonist activity at rat CB1 receptor expressed in mouse AtT20 cells by FLIPR membrane potential assay
Assignment: determine reported EC50 for the given molecules.

// solved cases for EC50 follow
INSERT INTO assay_data (sample_smiles, observed_measurement) VALUES
  ('CCCCCn1cc(C(=O)C23CC4CC(CC(C4)C2)C3)c2ccccc21', '35 to 40 nM'),
  ('CCCCCn1cc(C(=O)NC23CC4CC(CC(C4)C2)C3)c2ccccc21', '34 nM');

# input for lookup
**Query** Form field: reported EC50 of CCCCCn1cc(C(=O)CC23CC4CC(CC(C4)C2)C3)c2ccccc21
**Result** 35 to 40 nM

###

- Assayed target: Cannabinoid receptor 2 (Homo sapiens)
- Assay protocol: Agonist activity at human CB2 receptor expressed in CHO cells assessed as induction of Ca2+ flux after 10 mins by Fluor-4 AM dye based assay
- Format: functional, cell-based
Binary call on EC50 with cut-off 400 nM: strictly below means Met, and equality or higher means Not met.

**Query** State whether 400 nM exceeds EC50 recorded for CCCCCn1c(C(=O)NC23CC4CC(CC(C4)C2)C3)cc2ccccc21 .
**Result** Not met

**Query** State whether 400 nM exceeds EC50 recorded for O=C(NC1CCCCC1)c1cc2ccccc2n1CCCCCO .
**Result** Not met

**Query** State whether 400 nM exceeds EC50 recorded for O=C(NC12CC3CC(CC(C3)C1)C2)c1cc2ccccc2n1CCCCO .
**Result** Met

###

Assignment: determine reported Emax for the given compounds.
- Assayed target: Cannabinoid receptor 2 (Homo sapiens)
- Assay protocol: Agonist activity at human CB2 receptor expressed in CHO cells assessed as induction of Ca2+ flux after 10 mins by Fluor-4 AM dye based assay relative to CP55940
- Format: functional, cell-based
Give bare numbers, in %.

// solved cases for Emax follow
INSERT INTO assay_data (sample_smiles, measure_name, observed_measurement) VALUES
  ('CCCCCn1c(C(=O)NC23CC4CC(CC(C4)C2)C3)cc2ccccc21', 'Emax', 53.3),
  ('O=C(NC12CC3CC(CC(C3)C1)C2)c1cn(CCN2CCOCC2)c2ccccc12', 'Emax', 56.7);

Give one value of Emax per listed compound.
1. O=CCCCCn1c(C(=O)NC23CC4CC(CC(C4)C2)C3)cc2ccccc21
2. O=C(NC12CC3CC(CC(C3)C1)C2)c1c(F)c2ccccc2n1CCCCO
3. N#CCCCn1cc(C(=O)NC23CC4CC(CC(C4)C2)C3)c2ccccc21
4. NCCCCn1c(C(=O)NC23CC4CC(CC(C4)C2)C3)cc2ccccc21
5. CC(C)(C)NC(=O)c1cc2ccccc2n1CCCCCO

**Result**
1: 73.3; 2: 46.7; 3: 70; 4: 86.7; 5: 51.7
